Attribute: Absolute DNA transfection efficiency in MCF7 cells
# System: MCF7 cells
# test details: Transfection of MCF7 cell line, DNA vectors
# Assay type: cell-based
# Parameters: concentration or dose not given beside the values
# particulars: plasmid DNA, GFP cells / total cells
readout type: Absolute DNA transfection efficiency in MCF7 cells

molecule | study system | result
CCCCCCCCCCCSc1nc(NCCCCCCC)nc(NCCCN(C)C)n1 [Compound S11N7D6] | MCF7 cells | 16.2%
CCCCCCCCCCCSc1nc(NCCCN2CCOCC2)nc(SCCCCCCCC)n1 [Compound S8S11D8] | MCF7 cells | 12.3%
CCCCCCCCCCCCCCSc1nc(NCCCN(C)C)nc(SCCCCCCCCC)n1 [Compound S9S14D6] | MCF7 cells | 44.4%

---

# Test system: HEK293 cells
# test details: Preliminary screening as mRNA vectors, EGFP mRNA transfection of HEK293 cells
# Type: cell-based
# particulars: HEK293 cells, 96-well plates, EGFP mRNA 50 ng per well; percentage of GFP fluorescent cells relative to total number of cells (Hoechst)
Tick TRUE if Absolute mRNA transfection efficiency in HEK293 cells is 0.8% or greater. Tick FALSE if Absolute mRNA transfection efficiency in HEK293 cells is less than 0.8%.

compound | study system | label class
CCCCCCCCCCCCN(CCCCCCCCCCCC)c1nc(NCCCCCCCCC)nc(NCC2CCN(C)CC2)n1 [N9^2N12D10] | HEK293 cells | TRUE
CCCCCCCCCCCCCCCCCCNc1nc(NCCCCCCCCCCCCCCC)nc(NCCN2CCN(C)CC2)n1 [Compound N15N18D5] | HEK293 cells | FALSE
CCCCCCCCCCCCCCCNc1nc(NCCCCCCCCC)nc(NCCN2CCOCC2)n1 [Compound N9N15D2] | HEK293 cells | FALSE
CCCCCCCCCCSc1nc(NCCN2CCCCC2)nc(SCCCCCCCCC)n1 [Compound S9S10D4] | HEK293 cells | TRUE
CCCCCCCCCCCCCCCNc1nc(NCCCCCCCCCCCC)nc(NCCN2CCOCC2)n1 [Compound N12N15D2] | HEK293 cells | FALSE
CCCCCCCCCCCCCCCNc1nc(NCCCCCC)nc(NCCN2CCN(C)CC2)n1 [Compound N6N15D5] | HEK293 cells | FALSE
CCCCCCCNc1nc(NCCCCCC)nc(NCCN2CCN(C)CC2)n1 [Compound N6N7D5] | HEK293 cells | FALSE
CCCCCCCCCCCCCCCCCCSc1nc(NCCN2CCN(C)CC2)nc(SCCCCCCCCCC)n1 [Compound S10S18D5] | HEK293 cells | TRUE
CCCCCCCCCCCCCCCCNc1nc(NCCCCCCCCCCC)nc(NCCN(CC)CC)n1 [Compound N11N16D7] | HEK293 cells | FALSE
CCCCCCCCCCCCCCCCCCNc1nc(NCCCCCCCCCCCCC)nc(NCC2CCN(C)CC2)n1 [Compound N13N18D10] | HEK293 cells | TRUE
CCCCCCCCCCCCCNc1nc(NCCCCCCCCCCC)nc(NCCCN2CCOCC2)n1 [Compound N11N13D8] | HEK293 cells | FALSE
CCCCCCCCCCCCCNc1nc(NCCCCCCCCCCC)nc(NCCCN2CCN(C)CC2)n1 [Compound N11N13D9] | HEK293 cells | TRUE
CCCCCCCCCCCCCCCCSc1nc(NCCN(C)C)nc(SCCCCCCCCCCCCCC)n1 [Compound S14S16D1] | HEK293 cells | FALSE
CCCCCCCCCCCCCCCCCCNc1nc(NCCCCCCCCCCC)nc(NCC2CCN(C)CC2)n1 [Compound N11N18D10] | HEK293 cells | TRUE
CCCCCCCCCCCCCCCSc1nc(NCCCN(C)C)nc(SCCCCCCCC)n1 [Compound S8S15D6] | HEK293 cells | TRUE
CCCCCCCCCCCCCNc1nc(NCCCCCCCCCCCCC)nc(NCCN2CCCCC2)n1 [Compound N13N13D4] | HEK293 cells | TRUE
CCCCCCCCCCCCCNc1nc(NCCCCCCCCCCCCC)nc(NCCN(C)C)n1 [Compound N13N13D1] | HEK293 cells | FALSE
CCCCCCCCCCCCCCCNc1nc(NCCCCCC)nc(NCCCN2CCN(C)CC2)n1 [Compound N6N15D9] | HEK293 cells | FALSE
CCCCCCCCCCCSc1nc(NCCCN(C)C)nc(SCCCCCCCCC)n1 [Compound S9S11D6] | HEK293 cells | TRUE
CCCCCCCCCCCCN(CCCCCCCCCCCC)c1nc(NCCCCCCCCC)nc(NCCN(CC)CC)n1 [N9^2N12D7] | HEK293 cells | FALSE
CCCCCCCCCCCNc1nc(NCCCCCCC)nc(NCCN2CCOCC2)n1 [Compound N7N11D2] | HEK293 cells | FALSE

---

# System: HEK293 cells
# test details: Preliminary screening as DNA vectors, GFP transfection of HEK293 cells
# Format: cell-based
# particulars: HEK293 cells; lipid/DOPE liposome with 75 ng plasmid DNA (psin-EGFP-IRES-Puro); number of cells expressing GFP divided by total number of nuclei (Hoechst)
# Experimental: Cell line: HEK293 cells (ATCC CRL-1573™) Medium: DMEM supplemented with 10% fetal bovine serum (Invitrogen) Mode of screening: cell transfection on 96-well plates Detection (readout): percentage of the number of GFP fluorescent cells relative to the total number of cells (the total number of cells was measured using nucleus dye Hoechst—see FIG. 2). […] 4. […] The absolute transfection efficiency was calculated as follows: […]
Attribute: Absolute DNA transfection efficiency in HEK293 cells
readout type: Absolute DNA transfection efficiency in HEK293 cells (%)

smiles code | quantitative readout
CCCCCCCCCCCCCNc1nc(NCCCCCC)nc(NCC2CCN(C)CC2)n1 | 0.0
CCCCCCCCCCCCCCCCNc1nc(NCCCCCCCCCCCCCCCC)nc(NCCN2CCCC2)n1 | 1.4
CCCCCCCCCNc1nc(NCCCCCCC)nc(NCCN(C)C)n1 | 0.6
CCCCCCCCCCCCSc1nc(NCCN2CCOCC2)nc(SCCCCCCCCCCCC)n1 | 0.1
CCCCCCCCCCCCCCCNc1nc(NCCCCCC)nc(NCCN2CCN(C)CC2)n1 | 0.0
CCCCCCCCCCCCCCCCCCSc1nc(NCCN(CC)CC)nc(SCCCCCCCCCCCCCCC)n1 | 1.5
CCCCCCCCCCCCN(CCCCCCCCCCCC)c1nc(NCCCCCCCC)nc(NCCN2CCOCC2)n1 | 0.1
CCCCCCCCCCCCCCCNc1nc(NCCCCCCCCCCC)nc(NCCCN(C)C)n1 | 1.6
CCCCCCCCCCCCCCCSc1nc(NCCN2CCCCC2)nc(SCCCCCCCCCCCCCC)n1 | 0.7
CCCCCCCCCCCCCCSc1nc(NCCN(C)C)nc(SCCCCCCCCCCC)n1 | 2.0
CCCCCCCCCCCCCCCCNc1nc(NCCCCCC)nc(NCCCN2CCN(C)CC2)n1 | 0.0
CCCCCCCCCCCCCCCCCCSc1nc(NCCN(CC)CC)nc(SCCCCCCCCCCCC)n1 | 0.7

---

Attribute: Absolute mRNA transfection efficiency in HEK293 cells
# Test system: HEK293 cells
# test details: Preliminary screening as mRNA vectors, EGFP mRNA transfection of HEK293 cells
# Format: cell-based
# particulars: EGFP mRNA 50 ng per well, 96-well plates; percentage of GFP fluorescent cells relative to total number of cells (Hoechst)
readout type: Absolute mRNA transfection efficiency in HEK293 cells (%)

smiles code | study system | quantitative readout
CCCCCCCCNc1nc(NCCN(CC)CC)nc(SCCCCCC)n1 | HEK293 cells | 3.5
CCCCCCCCCCSc1nc(NCCCCCCCCC)nc(NCCCN2CCOCC2)n1 | HEK293 cells | 0.1
CCCCCCCCCCCCNc1nc(NCCCN2CCN(C)CC2)nc(SCCCCCCCCCCC)n1 | HEK293 cells | 21.7
CCCCCCCCCCCCCCCCCCSc1nc(NCCCCCCCCCCCC)nc(NCCCN2CCOCC2)n1 | HEK293 cells | 0.4
CCCCCCCCCCSc1nc(NCCN(C)C)nc(SCCCCCCCC)n1 | HEK293 cells | 8.6
CCCCCCCCCCCCCCCNc1nc(NCCN2CCOCC2)nc(SCCCCCCCCCCCC)n1 | HEK293 cells | 0.0
CCCCCCCCCCCCCCCNc1nc(NCCN2CCCCC2)nc(SCCCCCCCCCCCCCCC)n1 | HEK293 cells | 3.5
CCCCCCCSc1nc(NCCCCCC)nc(NCCN2CCCC2)n1 | HEK293 cells | 5.8
CCCCCCCCCCCCSc1nc(NCCCCCCC)nc(NCCCN2CCN(C)CC2)n1 | HEK293 cells | 0.6
CCCCCCCCCCCSc1nc(NCCCCCCCC)nc(NCCCN2CCOCC2)n1 | HEK293 cells | 0.3
CCCCCCCCCCCCCCSc1nc(NCCCCCCC)nc(NCC2CCN(C)CC2)n1 | HEK293 cells | 55.0
CCCCCCCCCCCCCCCCSc1nc(NCCCCCCC)nc(NCCN2CCN(C)CC2)n1 | HEK293 cells | 82.6
CCCCCCCCCCCCN(CCCCCCCCCCCC)c1nc(NCCN(C)C)nc(SCCCCCC)n1 | HEK293 cells | 0.7
CCCCCCCCCCCCCCSc1nc(NCCCCCC)nc(NCC2CCN(C)CC2)n1 | HEK293 cells | 41.9
CCCCCCCCCCCCCCCCCCSc1nc(NCCN(C)C)nc(SCCCCCCC)n1 | HEK293 cells | 4.1
CCCCCCCCCCCCCCCCNc1nc(NCC2CCN(C)CC2)nc(SCCCCCCCCC)n1 | HEK293 cells | 30.2
CCCCCCCCCCCCSc1nc(NCCCCCCCC)nc(NCCCN2CCOCC2)n1 | HEK293 cells | 2.3
CCCCCCCCCNc1nc(NCCN2CCN(C)CC2)nc(SCCCCCCC)n1 | HEK293 cells | 3.1
CCCCCCSc1nc(NCC2CCN(C)CC2)nc(SCCCCCC)n1 | HEK293 cells | 14.4
CCCCCCCCCCCCCCCCNc1nc(NCCN(CC)CC)nc(SCCCCCCCC)n1 | HEK293 cells | 16.8
CCCCCCCCCCCCSc1nc(NCCN2CCN(C)CC2)nc(N(CCCCCCCCCCCC)CCCCCCCCCCCC)n1 | HEK293 cells | 1.6
